Test system: Onchocerca gutturosa
Test: AntiOnchocerca activity O. gutturosa adult males: MTT reduction at 12.5 uM (%)
Format: functional
Parameters: scale not given: the % may be the effect or the level left
Observation type: Activity (%)

compound="COC(=O)C1=C(C)NC(C)=C(C(=O)OC(C)C)C1c1cccc2nonc12 (stereo unspecified)" system_tested="Onchocerca gutturosa" units_of_measure=% recorded_value=79
compound=CCCCc1ccc(NC(=O)Nc2ccc(O[C@H]3CCCC[C@@H]3N(C)c3ccccc3)c(F)c2)cc1 system_tested="Onchocerca gutturosa" units_of_measure=% recorded_value=0
compound=CC(C)(C)c1ccc(N[C@@H]2CCCC[C@H]2NC(=O)c2ccco2)cc1 system_tested="Onchocerca gutturosa" units_of_measure=% recorded_value=37.7
compound=Oc1c(I)cc(I)c2cccnc12 system_tested="Onchocerca gutturosa" units_of_measure=% recorded_value=88
compound=COC(=O)c1c(NC(=O)c2cc3ccccc3oc2=O)sc2c1CCN(Cc1ccccc1)C2 system_tested="Onchocerca gutturosa" units_of_measure=% recorded_value=0
compound=COc1ccc(N(CCc2cccc(C)n2)C(C)=O)cc1 system_tested="Onchocerca gutturosa" units_of_measure=% recorded_value=29.6
compound=COc1ccc(N(CCc2cccc(C)n2)C(=O)C2CCCCC2)cc1 system_tested="Onchocerca gutturosa" units_of_measure=% recorded_value=35.7
compound=O=C(Nc1nnc(S)s1)c1cc(Br)ccc1Cl system_tested="Onchocerca gutturosa" units_of_measure=% recorded_value=0
compound=CC(=O)N(CCN(C(=O)c1ccc(F)cc1)c1ccccc1)c1ccccc1 system_tested="Onchocerca gutturosa" units_of_measure=% recorded_value=0
compound=Cc1[nH]c2cc(F)cc(F)c2c(=O)c1-c1ccc(Oc2ccc(OC(F)(F)F)cc2)cc1 system_tested="Onchocerca gutturosa" units_of_measure=% recorded_value=56.9
compound=O=C(c1ccc(F)cc1)N(CCNc1ccccc1)c1ccccc1 system_tested="Onchocerca gutturosa" units_of_measure=% recorded_value=0
